Molecular target: Bcl-2 protein (histag-Bcl-2, UniProtKB P10415) (Homo sapiens, UniProt P10415)
Sequence (P10415 whole entry): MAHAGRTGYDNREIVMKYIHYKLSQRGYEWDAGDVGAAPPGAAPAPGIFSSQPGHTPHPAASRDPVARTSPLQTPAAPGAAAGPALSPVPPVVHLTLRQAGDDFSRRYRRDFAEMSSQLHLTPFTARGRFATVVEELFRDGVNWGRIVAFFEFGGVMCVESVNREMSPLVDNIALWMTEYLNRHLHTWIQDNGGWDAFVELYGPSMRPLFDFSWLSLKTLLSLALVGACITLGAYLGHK
Test: Inhibition of Bcl-2 by the fluorescence polarisation technique
Type: binding
Details: fluorescence polarisation, 2 hours incubation; read-out: IC50 (μM) Bcl-2 FP
property.label: IC50 (µM)

compound | reading.unit | IC50
Cc1c2cc(n1C)-c1cc(Cl)ccc1CN1CCc3c(cccc3OCCCc3c(cnn3C)N(c3ccc(O)cc3)C2=O)C1 [Example 11] | µM | 0.157
Cc1c2cc(n1C)-c1cc(Cl)ccc1C(=O)N1CCc3c(cccc3OCCOCCN(c3ccc(O)cc3)C2=O)C1 [Example 34] | µM | 0.0693
Cc1c2cc(n1C)-c1cc(Cl)ccc1C(=O)N1CCc3c(cccc3OCCCOc3cccc(c3)N(c3ccc(O)cc3)C2=O)C1 [Example 2] | µM | 0.0044
Cc1c2cc(n1C)-c1cc(F)ccc1C(=O)N1CCc3c(cccc3OCCc3c(cnn3C)N(c3ccc(O)cc3)C2=O)C1 [Example 20] | µM | 0.0123
Cc1c2cc(n1C)-c1cc(Cl)ccc1C(=O)N1Cc3cccc(c3CC1CN1CCOCC1)OCCCc1c(cnn1C)N(c1ccc(O)cc1)C2=O (stereo not shown) [Example 17] | µM | 0.0123
Cc1c2cc(n1C)-c1cc(Cl)ccc1C(=O)N1Cc3ccccc3C(COc3ccc(C#N)cc3N(c3ccc(O)cc3)C2=O)C1 (stereo not shown) [Example 13] | µM | 0.0332
Cc1c2cc(n1C)-c1cc(Cl)ccc1C(=O)N1CCc3c(cccc3OCCOc3cccc(c3)N(c3ccc(O)cc3)C2=O)C1 [Example 1] | µM | 0.0067
Cc1c2cc(n1C)-c1cc(Cl)ccc1C(=O)N1CCc3c(cccc3OCCc3c(cnn3C)N(c3ccc(O)cc3)C2=O)C1 [Example 16] | µM | 0.00555

P: Cc1c2cc(n1C)-c1cc(Cl)ccc1C(=O)N1CCc3c(cccc3OCCCOc3cc(C#N)cc(c3)N(c3ccc(O)cc3)C2=O)C1 [Example 5]
Q: Cc1c2cc(n1C)-c1cc(Cl)ccc1C(=O)N1CCc3c(cccc3OCCCCOc3ncc(cn3)N(c3ccc(O)cc3)C2=O)C1 [Example 41]
Query :: Looking at P and Q , which one comes out lower in IC50 terms? Please indicate the selected item by its label.
Result :: P
(P: 0.00205 µM, Q: 0.0467 µM)

A: Cc1c2cc(n1C)-c1cc(Cl)ccc1C(=O)N1CCc3c(cccc3OCCOc3c(cnn3C)N(c3ccc(O)cc3)C2=O)C1 [Example 21]
B: Cc1c2cc(n1C)-c1cc(Cl)ccc1C(=O)N1CCc3c(cccc3OCCCCCOc3ncc(cn3)N(c3ccc(O)cc3)C2=O)C1 [Example 40]
Query :: When A and B are compared, which has the higher number for IC50? Please indicate the selected item by its label.
Result :: A
(A: 0.0148 µM, B: 0.0064 µM)

---

System: RS4; 11 leukaemia tumour line
Assay: In vitro cytotoxicity, Microculture Tetrazolium Assay (MTT)
Type: cell-based
Settings: Homo sapiens, RS4-11, 48 h, 11 cells, 48 hours exposure
property.label: IC50 (nM)
Kindly answer with a numeric value in nM, unit omitted.

Would you please look over these solved cases?
molecule | reading.unit | assay.result
Cc1c(N2C(=O)c3cc(n(C)c3C)-c3cc(Cl)ccc3C(=O)N3CCC(CCOc4cc(O)ccc42)CC3)cc(C#N)n1C [Example 27] | nM | 104
Cc1c2cc(n1C)-c1cc(Cl)ccc1C(=O)N1CCc3c(cccc3OCCc3c(cc(C#N)n3C)N(c3ccc(O)cc3)C2=O)C1 [Example 19] | nM | 10.3

Query :: What does the data say about its IC50? Entry: Cc1c2cc(n1C)-c1cc(Cl)ccc1C(=O)N1CCc3c(cccc3OCCCOc3cc(C#N)cc(c3)N(c3ccc(O)cc3)C2=O)C1 [Example 5]
Result :: 21.4
